# target entity: T1, hKLRF2 (human, UniProt D3W0D1 1-207)
# T1 construct: Overexpressed on HEK293 cells
# T1 sequence: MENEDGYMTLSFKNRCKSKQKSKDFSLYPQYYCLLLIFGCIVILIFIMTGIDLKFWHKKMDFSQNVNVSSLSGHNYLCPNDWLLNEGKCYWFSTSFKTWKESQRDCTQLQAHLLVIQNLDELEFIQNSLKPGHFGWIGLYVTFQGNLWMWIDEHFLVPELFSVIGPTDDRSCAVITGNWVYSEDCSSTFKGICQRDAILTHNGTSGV
# assay name: flow cytometry, HEK293 transfectants, 100 nM antibody;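 note: antibody applied at a saturating level and incubated with cells for 30 min at room temperature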
recorded metric: % of CD161 binding (%)
Give the value in % but do not write % after it.

- binder: "Ab8 (antibody, human IgG1, V domains shown, IgG purified from yeast culture) VH: EVQLLESGGGLVQPGGSLRLSCAASGFTFGTFAMSWVRQAPGKGLEWVSAISGVGGTTYYADSVKGRFTISRDNSKNTLYLQMNSLRAEDTAVYYCAKPLDSSFWADFDLWGRGTLVTVSS VL: DIQLTQSPSSVSASVGDRVTITCRASQTISSWLAWYQQKPGKAPKLLIYAASSLQSGVPSRFSGSGSGTDFTLTISSLQPEDFATYYCQQQSVLPITFGGGTKVEIK"
  test value: 0.038

// next item, % of CD161 binding requested
// % of CD161 binding value for Ab20 (antibody, human IgG1, V domains shown, IgG purified from yeast culture) VH: QVQLVESGGGLVQPGGSLRLSCAASGFTFSQYYMSWIRQAPGKGLEWVSYISPSGATIAYADSVKGRFTISRDNAKNSLYLQMNSLRAEDTAVYYCARSLMSTGTHLYFDLWGRGTLVTVSS VL: DIQLTQSPSSVSASVGDRVTITCRASQGISSWLAWYQQKPGKAPKLLIYAASVLQSGVPSRFSGSGSGTDFTLTISSLQPEDFATYYCQQVTSFLPYTFGGGTKVEIK : 0.054
